# folding stability dG per record follows
B1: EHEE_rd3_0053 (parent)
chain: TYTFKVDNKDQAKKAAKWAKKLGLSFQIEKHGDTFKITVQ

Variants of: B1
Assay: folding stability dG (cDNA display proteolysis); higher = more stable
Settings: PBS, room temperature
Express your answer in kcal/mol, writing the number without its unit.

# chain, quantity-unit, folding stability dG
rows = [
    ("CYTFKVDNKDQAKKAAKWAKKLGLSFQIEKHGDTFKITVQ", "kcal/mol", 3.57),
    ("NYTFKVDNKDQAKKAAKWAKKLGLSFQIEKHGDTFKITVQ", "kcal/mol", 2.17),
    ("TYTFKVDNKDQAKKAAKWAKKLGLYFQIEKHGDTFKITVQ", "kcal/mol", 2.18),
    ("TVTFKVDNKDQAKKAAKWAKKLGLSFQIEKHGDTFKITVQ", "kcal/mol", 2.01),
    ("TYTFKVDPKDQAKKAAKWAKKLGLSFQIEKHGDTFKITVQ", "kcal/mol", 0.466),
    ("TYTFKVDNKDQAKKAAIWAKKLGLSFQIEKHGDTFKITVQ", "kcal/mol", 2.53),
    ("TYTFKVDNKDQAKKAAKWAKKLGYSFQIEKHGDTFKITVQ", "kcal/mol", 2.33),
    ("TYTFKVDNKDQAKKAAKWAKHLGLSFQIEKHGDTFKITVQ", "kcal/mol", 2.16),
    ("TYTFKVDNKDQAKKAAKWAKKLGLSFQIEKHGDTFKITWQ", "kcal/mol", 1.56),
    ("TTTFKVDNKDQAKKAAKWAKKLGLSFQIEKHGDTFKITVQ", "kcal/mol", 1.42),
]

Lab note: `TYQFKVDNKDQAKKAAKWAKKLGLSFQIEKHGDTFKITVQ` gave folding stability dG of 1.95

Lab note: `TYTFKVDNKDQAKKAAKWAKKTGLSFQIEKHGDTFKITVQ` gave folding stability dG of 1.41

Lab note: `TYTFKVDNYDQAKKAAKWAKKLGLSFQIEKHGDTFKITVQ` gave folding stability dG of 2.86
